- Tested on: Calu-3
- TEST SUMMARY: cell viability relative to DMSO; higher = less toxic
- STUDY CONDITIONS: 72 h; 1000 nM
Some compounds, each annotated with its measured cell viability.
OBSERVATION TYPE: cell viability (%)

COMPOUND: CCCC[C@]1(CC)CS(=O)(=O)c2cc(CNC(CC(=O)O)CC(=O)O)c(OC)cc2[C@@H](c2ccccc2)N1
OBSERVATION TYPE: cell viability
RESULT: 89.5
//
COMPOUND: O=C(CCc1ccc(O)cc1)c1c(O)cc(O)cc1O
OBSERVATION TYPE: cell viability
RESULT: 98
//
COMPOUND: CCOC(=O)COc1ccc2c(=O)cc(-c3ccccc3)oc2c1 [efloxate]
OBSERVATION TYPE: cell viability
RESULT: 83.5
//
COMPOUND: OC[C@H]1O[C@@H](n2cnc3c(NC4CCCC4)ncnc32)[C@H](O)[C@@H]1O
OBSERVATION TYPE: cell viability
RESULT: 102
//
COMPOUND: CCn1c(-c2nonc2N)nc2cncc(CNC3CCNCC3)c21
OBSERVATION TYPE: cell viability
RESULT: 120
